READOUT_LABEL: melting point

[[record]]
compound = "CCO/C(=C(/Oc1ccc(-c2ccc(Cl)cc2)cc1)n1ccnc1)C(C)(C)C"
readout_label = "melting point"
measured = "112 to 113 °C"

[[record]]
compound = "CCN(CC)c1ccc2nc3c4ccccc4c(=Nc4cccnc4)cc-3oc2c1"
readout_label = "melting point"
measured = "198 to 199 °C"

[[record]]
compound = "COc1cccc(C=C2NC(=O)N(C)C2=O)c1"
readout_label = "melting point"
measured = "203 to 205 °C"

[[record]]
compound = "O=C(O)c1ccc(SC(Cn2ccnc2)c2ccc(C(F)(F)F)cc2)cc1 (stereo not given)"
readout_label = "melting point"
measured = "92 to 95 °C"

[[record]]
compound = "O=[N+]([O-])c1cnc(N2CCc3ccccc3CC2)c([N+](=O)[O-])c1"
readout_label = "melting point"
measured = "137 to 140 °C"

[[record]]
compound = "CC(C)C(=O)Oc1n[nH]c(=O)c2nc3cc(Cl)ccc3c(O)c12"
readout_label = "melting point"
measured = "328 to 335 °C"

[[record]]
compound = "CC(=O)OCCOc1cc(-n2c(=O)cc(C(F)(F)F)n(C)c2=O)c(F)cc1Cl"
readout_label = "melting point"
measured = "88 to 90 °C"

[[record]]
compound = "Cn1c2ccccc2c2c(C(=O)O)c(C(=O)O)ccc21"
readout_label = "melting point"
measured = "294 °C"

[[record]]
compound = "COc1ccc(-c2nc(N(C)C)c3c(C)c(C#N)sc3n2)cc1OC"
readout_label = "melting point"
measured = "198 to 200 °C"

[[record]]
compound = "Cc1cc(C(O)(c2cc(C)sc2C)c2cc(C)sc2C)c(C)s1"
readout_label = "melting point"
measured = "110 to 111 °C"

